I'd appreciate it if you could supply TGI values for the items below.
# Tested on: M14 melanoma
# experimentalProtocol: NCI tumour cell line growth inhibition, 48 h

Memo: CC(C)(C)OC(=O)/C=C/C(=O)O/C=C/[N+](=O)[O-] , reported TGI: > 100 µM

For record COC[C@H]1OC(=O)c2coc3c2[C@@]1(C)C1=C(C3=O)[C@@H]2CCC(=O)[C@@]2(C)C[C@H]1OC(C)=O the listed TGI is > 59 µM

Measured TGI of COc1ccc(C(=O)/C=C/c2cc(C(=O)c3cc(OC)c(OC)c(OC)c3)ccc2OC)cc1 : > 100 µM

Measured TGI of COc1cc(-c2cn(-c3ccc(Cl)cc3)c(=O)[nH]2)cc(OC)c1OC : > 100 µM

Query O=C1NC2(O)c3ccccc3C(=O)C2(O)N1c1ccccc1 (centres undefined) yields TGI of > 100 µM

So for O=C(COC(=O)c1ccccc1)c1ccc(Br)cc1 , the logged TGI turned out to be 31 µM

TGI reported for this compound CCOC(=O)c1c(NC(=O)c2ccccc2)sc2c1CCC2 : > 100 µM

// TGI lookup, compound = Cc1c(C(=O)CC(=O)C(=O)Nc2cccc(C(F)(F)F)c2)[n+](=O)c2ccccc2n1[O-] , result: 11.4 µM

Sample Cc1ccc(NS(=O)(=O)c2cc(C)ccc2C)cc1 ; TGI observed: 11 µM

The compound COc1cc2c(OC)c(c1)CCCC1=CC(=O)C=C(CCC2)C1=O showed TGI equal to > 64.5 µM

Value of measured TGI for the entry C=C1C(=O)O[C@@H]2C[C@@H](C)[C@@H]3[C@@H](OC4OC(COC(C)=O)C(O)C(O)C4O)CC(=O)[C@@]3(C)C[C@H]12 (some centres undefined) : 2.85 µM

TGI reported for this compound COc1cc(/C=C/C(=O)O)ccc1O : > 100 µM

Reported TGI ( O=C(N/N=C/c1ccc(O)cc1O)c1ccc(Nc2ccnc(C(F)(F)F)c2)cc1 ) = > 100 µM

Summary for this compound, COc1cccc2c1C(=O)c1ccc3cc(CO)cc(O)c3c1C2=O : TGI is 1.68 µM

What the record says about N#Cc1nc(Cc2ccccc2)oc1N : TGI is > 100 µM

Quick note, TGI for NNC(=O)CCCCCCCC(=O)O landed at > 100 µM

response.value for COC(=O)[C@H]1ON2O[C@@H](O[C@H]3CCCC[C@@H]3C(C)(C)c3ccccc3)C[C@@H]3CC[C@H]1[C@@]32C (field: TGI) = > 100 µM

The measured TGI associated with N#C[C@](CO)(NC(=O)OCc1ccccc1)C(F)F reads > 100 µM

Lab note: Cc1cc2nc3c(C(O)CO)nn(-c4ccccc4)c3nc2cc1C (centres undefined) gave TGI of > 100 µM

Measured TGI, CCOP(=O)(OCC)C(Cc1ccccc1)N=C(c1ccccc1)c1ccccc1 (centres undefined) : 30.4 µM

response.value for Nc1ncc(-c2ccc(C(F)(F)F)cc2)c(NC2CCCCCC2)n1 (field: TGI) = > 100 µM

Record summary for O=Cc1[nH]c2ccccc2c1Br : reported TGI = 46.3 µM

get_value(item= O=[N+]([O-])c1cc(Br)cc2c1[nH]c1ccc(Br)cc12 , readout=TGI) returns > 100 µM

For reference, reported TGI for O=C1NC(N/N=C/C(O)C(O)C(O)C(O)CO)=N/C1=C\c1cccs1 (centres undefined) stands at > 100 µM

Note to self: TGI recorded for C=CC1(CBr)CCC(C(C)(C)Br)O1 (centres undefined) was 27.7 µM

Recorded TGI (compound O=C(c1cc(-c2cc3c(cc2C(=O)N2Cc4ccccc4C[C@H]2CN2CCOCC2)OCO3)n2c1CCCC2)N(c1ccccc1)c1ccc(O)cc1 ): > 100 µM

Record summary for COc1ccc(/C=N/n2c(C)n[nH]c2=O)cc1 : reported TGI = > 100 µM

get_value(item= c1cncc(CNc2ccccc2-c2nnc(Nc3ccc4c(c3)OCCO4)o2)c1 , readout=TGI) returns > 100 µM

Lab book: TGI of O=C(/C(Cl)=C/c1ccccc1)c1ccccc1 noted as 4.98 µM

Input COc1cc(-c2cc(-c3nc4ccccc4[nH]3)[nH]n2)cc(OC)c1OC . Output TGI: 11.6 µM

Record CNS(=O)(=O)NN(C)S(=O)(=O)c1ccc(Br)cc1 , field TGI: > 100 µM

Notebook: O/N=C1\CC2(N3CCOCC3)CCC1(Cc1ccccc1)CC2 , TGI read as > 100 µM

Quick note, TGI for Cc1ccc2c(=O)[nH]sc2c1 landed at 23.9 µM

compound COC(=O)c1cc(C)ccc1CC(Cc1ccccc1C)C(=O)OC (centres undefined) , TGI observed: > 100 µM

Item: CNC=O | TGI: > 10000 µM

Given item CNC(=O)CNC(=O)CCC(=O)N(C)C , the value recorded as its TGI is > 100 µM

So for CCOC(=O)/C=C/[C@H](O[Si](c1ccccc1)(c1ccccc1)c1ccccc1)C(C)(C)C , the logged TGI turned out to be > 100 µM

Noted for CC1OC(OC2C(Oc3cc(O)c4c(=O)cc(-c5ccc(O)cc5)oc4c3)OC(CO)C(O)C2O)C(O)C(O)C1O (centres undefined) : its TGI reads > 100 µM

Form field TGI, entry CN(C)c1ccc(/C=C2\N=C(c3ccc(N)cc3)OC2=O)cc1 : > 100 µM

So, COc1ccc2c(-c3ccc(O)cc3)c(Oc3ccccc3)c(=O)oc2c1 ? Its TGI was > 100 µM

Data point: CCOC(=O)CC[C@@H](NC(=O)c1ccc(NCc2ccc3nc(OC)c(OC)nc3c2)cc1)C(=O)OCC ; TGI = 32 µM

Record COc1ccc(C(=O)c2cc(OC)c(OC)c(OC)c2)cc1O , field TGI: > 100 µM

For record O=C(/C=C/c1ccc(Cl)c(Cl)c1)CCN1CCN(CCC(=O)/C=C/c2ccc(Cl)c(Cl)c2)CC1 the listed TGI is 35.6 µM

Given item N#CSCC1CC(O)(c2ccccc2)C(c2ccccc2)C(c2ccc(F)cc2)O1 (centres undefined) , the value recorded as its TGI is 4.09 µM
